Items are presented alongside their recorded pEC50.
molecular target: HCV NS5B polymerase (Hepatitis C virus genotype 1a, UniProt P27958); construct: pre-incubated with the RNA template and NS5B polymerase protein; assay: Replizyme HCV heterotemplate radioactive RNA-dependent RNA-polymerase (RdRp) assay; conditions: pre-incubated 30 minutes at 37° C., reaction 90 minutes at 37° C.; read-out: HCV NS5B inhibition EC50
Sequence (P27958 2421-3011): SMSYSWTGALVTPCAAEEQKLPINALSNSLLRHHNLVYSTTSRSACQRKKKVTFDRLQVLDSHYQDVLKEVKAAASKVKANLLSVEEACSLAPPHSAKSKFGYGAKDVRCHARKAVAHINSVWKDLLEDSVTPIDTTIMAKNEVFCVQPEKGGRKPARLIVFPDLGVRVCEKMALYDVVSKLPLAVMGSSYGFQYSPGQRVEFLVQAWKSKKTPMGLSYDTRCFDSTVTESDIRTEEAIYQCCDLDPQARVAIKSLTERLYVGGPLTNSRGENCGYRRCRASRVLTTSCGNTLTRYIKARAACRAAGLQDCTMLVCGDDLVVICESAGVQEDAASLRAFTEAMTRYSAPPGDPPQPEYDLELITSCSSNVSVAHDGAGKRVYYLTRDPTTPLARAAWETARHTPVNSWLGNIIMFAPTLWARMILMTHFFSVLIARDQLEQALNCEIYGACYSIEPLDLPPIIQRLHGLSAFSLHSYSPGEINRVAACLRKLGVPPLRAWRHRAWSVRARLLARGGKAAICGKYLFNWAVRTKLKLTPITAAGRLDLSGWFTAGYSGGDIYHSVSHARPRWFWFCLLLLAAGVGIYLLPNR
pEC50: −log10 of the molar value.

>  <molecule>
CS(=O)(=O)Nc1ccc2c(c1)S(=O)(=O)N=C(c1c(O)n3cc(F)ccc3c(Cc3cc(F)cc(F)c3)c1=O)N2

>  <system.under.test>
HCV NS5B polymerase (Hepatitis C virus genotype 1a, UniProt P27958)

>  <pEC50>
> 7.00

$$$$
>  <molecule>
CS(=O)(=O)Nc1ccc2c(c1)S(=O)(=O)N=C(c1c(O)n3cc(F)ccc3c(Cc3ccc(F)cc3)c1=O)N2 [Compound 103S]

>  <system.under.test>
HCV NS5B polymerase (Hepatitis C virus genotype 1a, UniProt P27958)

>  <pEC50>
> 7.00

$$$$
>  <molecule>
CS(=O)(=O)Nc1ccc2c(c1)S(=O)(=O)N=C(c1c(O)n3ccccc3c(Cc3cc(F)cc(F)c3)c1=O)N2 [Compound 105S]

>  <system.under.test>
HCV NS5B polymerase (Hepatitis C virus genotype 1a, UniProt P27958)

>  <pEC50>
> 7.00

$$$$
>  <molecule>
CC(C)(C)CCc1c(=O)c(C2=NS(=O)(=O)c3cc(NS(C)(=O)=O)ccc3N2)c(O)n2cc(F)ccc12 [Compound 104S]

>  <system.under.test>
HCV NS5B polymerase (Hepatitis C virus genotype 1a, UniProt P27958)

>  <pEC50>
> 7.00

$$$$
>  <molecule>
CS(=O)(=O)Nc1ccc2c(c1)S(=O)(=O)N=C(c1c(O)n3cc(F)ccc3c(Cc3ccc(F)c(F)c3)c1=O)N2 [Compound 102S]

>  <system.under.test>
HCV NS5B polymerase (Hepatitis C virus genotype 1a, UniProt P27958)

>  <pEC50>
> 7.00

$$$$

Reference for the values: patent US20110110890A1
